Numbers sourced from PubChem BioAssay AID819.

assay: enhancers of NFkB p65 translocation in HUVEC – imaging, IL-1B stimulus, high-content imaging, primary screen (AID 819); details: HUVEC IL-1B NFkB p65 nuclear translocation imaging; at 2 µM;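 also: percent activation is computed from the nuclear over cytoplasmic p65 intensity ratio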
The whole screen tested about 94,000 compounds, of which about 280 (0.3%) were called active.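 The calls were made as follows: active = activation above 40%, about the mean plus 3 SD, also judged a hit on visual image review; inconclusive = activation above 40% but not a hit on visual review; inactive = activation not above 40% and no visual hit.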 Only a selection was taken, and actives are over-represented in it overall.
Your response should consist of one outcome taken from active, inactive

Sample answers from the record:
Cc1ccc(NC(=O)C(C)c2cccc(C(=O)c3ccccc3)c2)cc1 (configuration not stated)    inactive
COC(=O)CSc1nnc(-c2cccnc2)o1    inactive
O=C(NC1CCc2ccccc21)C12CN(Cc3ccccc3)CC1C(c1cccc([N+](=O)[O-])c1)=NO2 (configuration not stated)    inactive
Cc1sc(NC(=S)NC(=O)c2cccs2)nc1-c1ccc(CC(C)C)cc1    inactive
COc1ccc2c(c1OC)C(=O)OC2c1c(O)nc(SC)n(-c2ccccc2)c1=O (configuration not stated)    inactive
O=C(Cc1ncc(C(F)(F)F)cc1Cl)Nc1cccc(Br)c1    inactive
O=C(COC(=O)c1ccccc1NC(=O)c1ccco1)Nc1ccc2c(c1)OC(F)(F)O2    inactive
CON(C)S(=O)(=O)c1ccc2c(c1)NC(=O)C1CCCN21 (configuration not stated)    inactive
O=C(NC1CCCCC1)c1cc([N+](=O)[O-])ccc1N1CCOCC1    inactive
Cc1cc(OC(=O)c2c(Cl)cccc2Cl)nc(C)n1    inactive

Problem: Returns: the outcome recorded for `Cc1cc([N+](=O)[O-])c(NC2CCCCC2)c([N+](=O)[O-])c1` in this assay.
Result: inactive

Problem: Returns: the outcome recorded for `Nc1ccc(-c2sc(N)nc2-c2ccccc2)cc1` in this assay.
Result: inactive

Problem: Returns: the outcome recorded for `O=c1c2c(nc3nc[nH]n13)CCC2` in this assay.
Result: inactive

Problem: Returns: the outcome recorded for `O=C(CSc1nnnn1-c1ccccc1)NCc1ccco1` in this assay.
Result: inactive

Problem: Returns: the outcome recorded for `OCCN(Cc1ccccc1)Cc1ccc(Cl)cc1` in this assay.
Result: inactive
